Entry source: ChEMBL document CHEMBL3393037

- Measurement protocol: Cytotoxicity against human HepG2 cells after 72 hrs by crystal violet staining method
- Format: cell-based
- Assay context: read-out: MIC
Readout kind: MCC at 72 h (µM)
The answer is to be given in µM; state only the numeric part.

Item: NC(=O)c1cc(-c2ccccc2)sc1NC(=O)c1ccc2c(c1)OCCO2 | MCC at 72 h: 10

The value of MCC at 72 h measured for the molecule Cc1cccc(Cc2cnc(NC(=O)C3CCC3)s2)c1 turned out to be 20

----------
- Measurement protocol: Antifungal activity against Histoplasma capsulatum G217B ATCC 26032 assessed as inhibition of visible growth after 5 days
- Type: functional
Readout kind: MIC50

Form field MIC50, entry Nc1ncc(Cc2ccccc2)s1 : > 10 µM

What the record says about O=C(CCC1CCCCC1)Nc1ncc(Cc2cccc(F)c2)s1 : MIC50 is 0.8 µM

MIC50 reported for this compound O=C(Nc1ncc(Cc2ccc3ccccc3c2)s1)C12CC3CC(CC(C3)C1)C2 : > 10 µM

Notebook: O=C(Nc1ncc(Cc2cccc3ccccc23)s1)C12CC3CC(CC(C3)C1)C2 , MIC50 read as > 10 µM

Entry under test: Cc1nc(NC(=O)CCC2CCCCC2)sc1Cc1ccccc1 . Its MIC50 was > 10 µM

Entry O=C(Nc1ncc(Cc2ccccc2)s1)N1CCCCC1 — recorded MIC50 = > 10 µM
